# tested.system: full-length recombinant human FYN A (Homo sapiens (Human), UniProt P06241)
# Sequence (P06241 whole entry): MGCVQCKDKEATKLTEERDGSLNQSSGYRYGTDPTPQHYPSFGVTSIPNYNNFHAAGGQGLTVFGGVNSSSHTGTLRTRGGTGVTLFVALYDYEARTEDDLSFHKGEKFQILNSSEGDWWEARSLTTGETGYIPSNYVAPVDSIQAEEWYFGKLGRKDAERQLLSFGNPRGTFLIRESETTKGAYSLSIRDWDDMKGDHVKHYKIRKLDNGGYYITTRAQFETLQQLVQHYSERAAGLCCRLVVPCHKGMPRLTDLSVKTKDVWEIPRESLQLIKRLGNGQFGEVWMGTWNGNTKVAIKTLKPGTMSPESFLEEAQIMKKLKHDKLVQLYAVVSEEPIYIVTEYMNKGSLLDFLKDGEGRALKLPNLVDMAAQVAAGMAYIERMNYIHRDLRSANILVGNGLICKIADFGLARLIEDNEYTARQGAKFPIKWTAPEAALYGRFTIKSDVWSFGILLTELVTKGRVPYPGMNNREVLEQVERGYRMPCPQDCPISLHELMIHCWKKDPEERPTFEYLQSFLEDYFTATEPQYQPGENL
# experiment: ADP-Glo Kinase Assay of FYN kinase inhibition
# Type: biochemical
# test.conditions: primary screen, initial compounds
measured.metric: IC50 (µM)

Observe how each entry below is paired with its result.
c1ccc(-c2cnc3ccc(NCc4ccco4)nn23)cc1; 6.38
COc1cc(-c2cnc3cnc(-c4ccc(N)nc4)cn23)ccc1O; 1.41
COc1ccc(Nc2ccn3ncc(-c4cccc(C(C)=O)c4)c3n2)cn1; 1.64
Oc1cccc(-c2cnc3ccc(-c4cccnc4)nn23)c1; 0.586
COc1ccc(-c2cnc(N)c(-c3cc(OC)c(OC)c(OC)c3)c2)cc1; 2.98
COc1cc(-c2cc(-c3cccc(F)c3)cnc2N)ccc1O; 2.03
COc1cc(-c2cnc3sc(NCCc4ccncc4)nn23)cc(OC)c1OC; 1.77
CC(=O)c1cccc(-c2cnc3sc(NCC(C)C)nn23)c1; 15.1

(P) COc1cc(-c2cc(-c3ccoc3)cnc2N)cc(OC)c1OC
(Q) CNc1ccc2ncc(-c3ccc(OC)c(OC)c3)n2n1
(R) CC(=O)Nc1cccc(-c2cncc(-c3cccc(O)c3)n2)c1
(S) CN(C)CCNC(=O)c1ccc(-c2cn3c(-c4cccc(O)c4)cnc3cn2)cc1
Problem: Put the entries in order of IC50, starting with the largest number. # list labels per requested ordering
Solution: P, R, Q, S

(1) OCc1cccc(-c2ccc3ncc(-c4cccs4)n3n2)c1
(2) CCC(CO)Nc1cncc(-c2cc(C(C)C)ccc2OC)n1 (stereo not shown)
Problem: For the pair 1 and 2 , which entry has the numerically smaller recorded IC50? Your answer should be the label of the entry you select.
Solution: 1

(a) COc1ccc(-c2ccc3ncc(-c4ccc(CO)cc4)n3n2)cc1OC
(b) COc1cc(-c2cc(-c3ccc(F)c(Cl)c3)cnc2N)ccc1O
(c) Nc1cccc(-c2ccnc3[nH]nc(-c4ccncc4)c23)c1
(d) CN(C)C(=O)c1cccc(-c2cnc3sc(NCCc4ccc(S(N)(=O)=O)cc4)nn23)c1
Problem: Write the entries in order, lowest recorded IC50 first. Your reply should list the labels following the order given in the request.
Solution: d, a, b, c

====

# tested.system: full-length recombinant human FYN A (Homo sapiens (Human), UniProt P06241)
# experiment: ADP-Glo Kinase Assay of FYN kinase inhibition
# Assay type: biochemical
# test.conditions: primary screen, initial compounds
measured.metric: IC50 (nM)

Known results for compounds:
Oc1cccc(-c2cnc3cnc(-c4ccc(NCCN5CCOCC5)nc4)cn23)c1 [Compound 241]; 2940
CN1CCN(c2ccc(Nc3nccc4[nH]c(-c5ccc(C(=O)N(C)C)cc5)cc34)cc2)CC1 [Compound 595]; 7040
COc1ccc(-c2ccc3ncc(-c4cccc(NC(C)=O)c4)n3n2)cc1OC [Compound 411]; 259
Fc1cccc(-c2cnc3sc(NC4CCCCC4)nn23)c1 [Compound 578]; 4080
c1cncc(-c2cnc3ccc(-c4cccs4)nn23)c1 [Compound 353]; 346
COc1cccc(-c2ccc3ncc(-c4ccc(O)c(OC)c4)n3n2)c1 [Compound 366]; 221
COCCNc1ccc2ncc(-c3ccc(F)cc3)n2n1 [229_0033_0339]; 4000
COc1cc(-c2cnc3cnc(-c4ccccc4N(C)C)cn23)ccc1O [388_0314_0006]; 1750
COc1cc(-c2n[nH]c3nccc(-c4ccc(S(C)(=O)=O)cc4)c23)cc(OC)c1OC [Compound 525]; 11200
COc1ccc(CNc2nn3c(-c4ccc(CO)cc4)cnc3s2)cc1 [Compound 555]; 2810

(I) NC(=O)c1ccc(-c2ccc3ncc(-c4cccnc4)n3n2)cc1 [Compound 426]
(II) OCc1cccc(-c2cnc3ccc(-c4cccc(O)c4)nn23)c1 [Compound 349]
(III) c1csc(-c2cn3c(-c4ccsc4)cnc3cn2)c1 [Compound 200]
(IV) COc1cc(-c2cnc3ccc(-c4ccc5c(c4)OCO5)nn23)ccc1O [Compound 450]
(V) OCc1ccc(-c2cn3c(-c4ccc(Oc5ccccc5)cc4)cnc3cn2)cc1 [Compound 207]
Problem: List these items ordered by IC50, big to small. Enter labels, ranked according to the request.
Solution: I, V, III, II, IV

====

# tested.system: full-length recombinant human FYN A (Homo sapiens (Human))
# experiment: ADP-Glo Kinase Assay of FYN kinase inhibition
# Format: biochemical
# test.conditions: primary screen, initial compounds
pIC50: −log10 of the molar value.
measured.metric: pIC50

Recorded pIC50, per entry:
NC(=O)c1ccc(-c2ccnc3[nH]nc(-c4ccc(Cl)cc4)c23)cc1 [Compound 510]; 5.24
COc1ccc(-c2ccnc3[nH]nc(-c4ccccc4OC)c23)cn1 [Compound 491]; 5.53
COc1ccccc1-c1cc(NC(C)=O)c2ncc(-c3cccc(C(C)=O)c3)n2c1 [Compound 565]; 5.80
Cc1cc(-c2cnc(N)c(-c3ccncc3)c2)cc(C)c1O [382_0069_0315]; 5.77
OCc1cccc(-c2cnc3ccc(-c4ccccc4)nn23)c1 [Compound 318]; 5.76
COc1cc(-c2n[nH]c3nccc(-c4ccc(NC(C)=O)cc4)c23)cc(OC)c1OC [Compound 499]; 5.69

(1) COc1ccccc1-c1n[nH]c2nccc(-c3ccc(C(N)=O)cc3)c12 [Compound 502]
(2) COc1ccc(-c2cnn3c(N)c(-c4cccc(Cl)c4)cnc23)cc1OC [Compound 255]
(3) Cn1c(-c2cccc(F)c2)cc2cnc(Nc3ccncn3)cc21 [Compound 593]
Problem: Output the entries ranked by pIC50 from maximum down to minimum. Would you mind listing the labels in the order requested?
Solution: 2, 1, 3
(2: 6.09, 1: 5.83, 3: 5.04)

====

# tested.system: full-length recombinant human FYN A (Homo sapiens (Human))
# experiment: ADP-Glo Kinase Assay of FYN kinase inhibition
# Format: biochemical
# test.conditions: primary screen, initial compounds
measured.metric: IC50 (µM)

The examples below pair each entry with its known result.
Oc1cccc(-c2cnc3ccc(-c4ccc(F)cc4)nn23)c1 [Compound 403]; 11.9
CN(C)CCNC(=O)c1ccc(-c2cn3c(-c4ccc5c(c4)OCO5)cnc3cn2)cc1 [Compound 237]; 3.8

(I) OC1CCC(Nc2nn3c(-c4ccc(F)c(Cl)c4)cnc3s2)CC1 (centres unmarked) [Compound 547]
(II) Oc1cccc(-c2ccc3ncc(-c4ccc5c(c4)OCO5)n3n2)c1 [Compound 351]
(III) Cn1c(-c2cccc(C(F)(F)F)c2)cc2cnc(Nc3ccncn3)cc21 [Compound 591]
Problem: In this exercise, place the 3 compounds in ascending sequence of their recorded IC50. Put the labels in the requested order and list them out.
Solution: II, I, III
(II: 0.915 µM, I: 4.06 µM, III: 16.8 µM)

====

# tested.system: full-length recombinant human FYN A (Homo sapiens (Human), UniProt P06241)
# experiment: ADP-Glo Kinase Assay of FYN kinase inhibition
# Assay type: biochemical
# test.conditions: primary screen, initial compounds
measured.metric: IC50 (nM)

Clc1cccc(-c2ccc3ncc(-c4ccncc4)n3n2)c1 [Compound 319]; 258
COC(=O)c1c(N)n(-c2cccc(O)c2)c2nc3ccccc3nc12 [Compound 600]; 2260
Oc1cccc(-c2cnc3cnc(-c4ccco4)cn23)c1 [Compound 211]; 6110
COc1cncc(-c2cnc3sc(NCC(C)C)nn23)c1 [Compound 270]; 5170
COc1cc(-c2cnc3ccc(-c4ccc(NC(C)=O)cc4)nn23)ccc1O [Compound 272]; 169

(1) CC(C)[C@@H](CO)Nc1ccc2ncc(-c3ccc4c(c3)OCO4)n2n1 [229_0254_0068]
(2) Cn1cc(-c2ccc3ncc(-c4ccc5c(c4)OCO5)n3n2)cn1 [Compound 390]
Problem: Of the two listed items, 1 and 2 , which carries the larger IC50 figure? Write the label of whichever entry you select.
Solution: 1

(a) CCC(CO)Nc1ccc2ncc(-c3ccc(CO)cc3)n2n1 (stereo not shown) [229_0153_0285]
(b) COc1ccc(-c2cnc3ccc(-c4cccnc4)nn23)cc1OC [Compound 405]
Problem: Of the two listed items, a and b , which carries the larger IC50 figure? Reply briefly: the label of your chosen item.
Solution: a
(a: 2470 nM, b: 549 nM)

(1) CC(=O)c1cccc(-c2ccc3ncc(-c4cccc(CO)c4)n3n2)c1 [Compound 375]
(2) COc1ccccc1-c1ccc2ncc(-c3ccncc3)n2n1 [Compound 312]
(3) OCCCNc1ccc2ncc(-c3ccc(Oc4ccccc4)cc3)n2n1 [229_0248_1029]
Problem: Please produce an ascending ranking of these compounds based on IC50. Sort the labels as requested; that list is your answer.
Solution: 2, 1, 3
(2: 585 nM, 1: 2170 nM, 3: 5540 nM)

(1) OC1CCC(Nc2nn3c(-c4cccc(F)c4)cnc3s2)CC1 (stereo not shown) [Compound 571]
(2) COc1cc(OC)cc(-c2cc3c(N4CCOCC4)nccc3[nH]2)c1 [Compound 596]
(3) CC(=O)Nc1cccc(-c2cnc3ccc(-c4ccc(N(C)C)cc4)nn23)c1 [Compound 290]
(4) CN(C)C(=O)c1ccc(-c2ccnc3[nH]nc(-c4ccsc4)c23)cc1 [Compound 494]
Problem: Could you please order the items by IC50, going from the lowest number to the highest? Form entry: labels listed in requested order.
Solution: 3, 1, 4, 2
